- Tested on: S. aureus GC 2216
- Method: In vitro MIC, broth dilution
- Type: cell-based
- Condition summary: Staphylococcus aureus, GC2216
- Protocol: The minimum inhibitory concentration (MIC), the lowest concentration of the antibiotic which inhibits growth of the test organism, is determined by the broth dilution method using Muller-Hinton II […] (Baltimore Biological Laboratories) following the recommendations of National Committee for Clinical Laboratory Standards. […] The MIC is determined after the microtiter plates are incubated for 18 hours at 35° C. in an ambient air incubator. […]
Value kind: MIC (µg/mL)
Please state the figure in µg/mL; there is no need to write the unit.

Enquiry: For the compound shown here, COc1ccc(Cn2c(=O)ccn([C@@H]3OC([C@@H](O)[C@H](NCCCNC(=O)[C@@H](NC(=O)OCc4ccccc4)[C@H](C)O)C(=O)OC(C)(C)C)[C@@H](O[Si](C)(C)C(C)(C)C)[C@H]3O[Si](C)(C)C(C)(C)C)c2=O)cc1 (some centres unmarked) , give the reported MIC.
Return: 128

----------
- System: E. coli GC 3226
- Method: In vitro MIC, broth dilution
- Format: cell-based
- Condition summary: Escherichia coli, GC3226
Value kind: MIC

Enquiry: # lookup: MIC of COc1ccc(Cn2c(=O)ccn([C@@H]3OC([C@H](O)[C@H](NCCCNC(=O)[C@@H](NC(=O)OCc4ccccc4)[C@H](C)O)C(=O)OC(C)(C)C)[C@@H](O[Si](C)(C)C(C)(C)C)[C@H]3O[Si](C)(C)C(C)(C)C)c2=O)cc1 (some centres unmarked) [Example 10]
Return: > 128 mg/L

Next:
Enquiry: Given the compound COc1ccc(Cn2c(=O)ccn([C@@H]3OC([C@H](O)[C@H](NCCCNC(=O)[C@H](Cc4ccccc4)NC(=O)OCc4ccccc4)C(=O)OC(C)(C)C)[C@@H](O[Si](C)(C)C(C)(C)C)[C@H]3O[Si](C)(C)C(C)(C)C)c2=O)cc1 (some centres unmarked) [Example 12] , what is its reported MIC?
Return: > 128 mg/L

----------
- System: E. faecalis GC 4555
- Method: In vitro MIC, broth dilution
- Assay type: cell-based
- Condition summary: Enterococcus faecalis, GC4555
Value kind: MIC

Recorded results for 5 molecules are shown here.
Enquiry: Which measured MIC belongs to COc1ccc(Cn2c(=O)ccn([C@@H]3OC([C@H](O)[C@H](NCCCNC(=O)[C@H](Cc4ccccc4)NC(=O)OCc4ccccc4)C(=O)OC(C)(C)C)[C@@H](O[Si](C)(C)C(C)(C)C)[C@H]3O[Si](C)(C)C(C)(C)C)c2=O)cc1 (some centres unmarked) , tested on E. faecalis GC 4555?
Return: 128 µg/mL

Enquiry: Hi! What's the reported MIC for COc1ccc(Cn2c(=O)ccn([C@@H]3OC([C@H](O)[C@H](NCCCNC(=O)[C@H](CCCCNC(=O)OCc4ccccc4)NC(=O)OCc4ccccc4)C(=O)OC(C)(C)C)[C@@H](O[Si](C)(C)C(C)(C)C)[C@H]3O[Si](C)(C)C(C)(C)C)c2=O)cc1 (some centres unmarked) on E. faecalis GC 4555?
Return: > 128 µg/mL

Enquiry: Fill in the recorded MIC for this molecule, with E. faecalis GC 4555 as test system: COc1ccc(Cn2c(=O)ccn([C@@H]3OC([C@H](O)[C@H](NCCCNC(=O)[C@H](CCC(=O)OC(C)(C)C)NC(=O)OCc4ccccc4)C(=O)OC(C)(C)C)[C@@H](O[Si](C)(C)C(C)(C)C)[C@H]3O[Si](C)(C)C(C)(C)C)c2=O)cc1 (some centres unmarked)
Return: > 128 µg/mL

Enquiry: For the record COc1ccc(Cn2c(=O)ccn([C@@H]3OC([C@@H](O)[C@H](NCCCNC(=O)C(NC(=O)OCc4ccccc4)[C@@H](O)C(C)C)C(=O)OC(C)(C)C)[C@@H](O[Si](C)(C)C(C)(C)C)[C@H]3O[Si](C)(C)C(C)(C)C)c2=O)cc1 (stereo in doubt) , what value of MIC is listed for E. faecalis GC 4555?
Return: 128 µg/mL

Enquiry: Record lookup: for E. faecalis GC 4555, what MIC belongs to COc1ccc(Cn2c(=O)ccn([C@@H]3OC([C@H](O)[C@H](NCCCNC(=O)[C@H](CC(=O)OCc4ccccc4)NC(=O)OCc4ccccc4)C(=O)OC(C)(C)C)[C@@H](O[Si](C)(C)C(C)(C)C)[C@H]3O[Si](C)(C)C(C)(C)C)c2=O)cc1 (some centres unmarked) ?
Return: > 128 µg/mL

Further cases:
Enquiry: Give MIC (E. faecalis GC 4555) of the following molecule: COc1ccc(Cn2c(=O)ccn([C@@H]3OC([C@H](O)[C@H](NCCCNC(=O)CCCCCCCCCCNC(=O)OCC4c5ccccc5-c5ccccc54)C(=O)OC(C)(C)C)[C@@H](O[Si](C)(C)C(C)(C)C)[C@H]3O[Si](C)(C)C(C)(C)C)c2=O)cc1 (some centres unmarked)
Return: > 128 µg/mL

Enquiry: Please provide the recorded MIC for COc1ccc(Cn2c(=O)ccn([C@@H]3OC([C@H](O)[C@H](NCCCNC(=O)[C@H](CC(C)C)NC(=O)[C@H](CCCNC(=N)N[N+](=O)O)NC(=O)N[C@H](C(=O)OCc4ccccc4)C(C)C)C(=O)OC(C)(C)C)[C@@H](O[Si](C)(C)C(C)(C)C)[C@H]3O[Si](C)(C)C(C)(C)C)c2=O)cc1 (some centres unmarked) , tested on E. faecalis GC 4555.
Return: > 128 µg/mL

Enquiry: Requested read-out MIC, target or system E. faecalis GC 4555, entry COc1ccc(Cn2c(=O)ccn([C@@H]3OC([C@H](O)[C@H](NCCCNC(=O)C(NC(=O)[C@H](CCCNC(=N)N[N+](=O)[O-])NC(=O)N[C@H](C(=O)OCc4ccccc4)C(C)C)[C@@H](C)O)C(=O)OC(C)(C)C)[C@@H](O[Si](C)(C)C(C)(C)C)[C@H]3O[Si](C)(C)C(C)(C)C)c2=O)cc1 (some centres unmarked)
Return: 64 µg/mL
